# measured_target: L. donovani NMT (Leishmania donovani, UniProt D0AB09)
# Sequence (D0AB09 entry or part of it): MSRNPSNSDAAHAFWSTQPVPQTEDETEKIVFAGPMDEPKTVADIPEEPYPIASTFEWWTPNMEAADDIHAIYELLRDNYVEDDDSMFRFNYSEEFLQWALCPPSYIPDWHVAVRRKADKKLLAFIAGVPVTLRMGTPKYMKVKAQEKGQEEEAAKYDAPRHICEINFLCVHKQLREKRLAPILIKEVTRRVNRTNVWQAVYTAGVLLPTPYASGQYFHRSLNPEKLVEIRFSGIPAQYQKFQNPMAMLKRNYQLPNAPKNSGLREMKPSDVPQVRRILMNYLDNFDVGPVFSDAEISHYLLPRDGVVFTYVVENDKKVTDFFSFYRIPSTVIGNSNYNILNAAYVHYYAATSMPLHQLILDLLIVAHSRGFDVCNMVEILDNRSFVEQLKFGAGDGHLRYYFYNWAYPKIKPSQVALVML
# protocol_summary: biochemical
# condition_label: Table 2; mean of 3 determinations; read-out: Ldon IC50
# Description: Recombinant P. falciparum (Swiss-Prot Q81LW6) and L. donovani NMTs (EMBL accession number FN555136) were produced at the University of York, using established protocols. […] The reaction was initiated by adding 10 µL of the substrate mixture to each well containing the pre-incubated enzyme/compound mixture, and allowed to proceed at RT for 80 min. […] Radioactive counts were measured with an integration time of 300 sec per plate using the Leadseeker Generation 4 plate reader (GE Healthcare). […]
readout_label: IC50 (µM)

compound	measured_target	IC50 / µM
c1cncc(CCNCc2cccc(-c3cccc(CN4CCc5ncsc5C4)c3)c2)c1	L. donovani NMT (Leishmania donovani, UniProt D0AB09)	0.16
NC(CC(=O)N1CC(CO)C(c2ccc(Cl)cc2)C1)Cc1ccc(Cl)cc1 (stereo not shown)	L. donovani NMT (Leishmania donovani, UniProt D0AB09)	0.093

1: CNCC(=O)N1CC[C@@H](NC(=O)c2ccccc2C(F)(F)F)C1
2: Cc1cnc(CNC(=O)C2CN(c3nc(NCCN(C)C)ncc3Cl)C2)cn1
Looking only at measured IC50, which entry is lower, 1 or 2 ? Please identify the chosen entry by its label.
1

* * *

# measured_target: T brucei NMT (Trypanosoma brucei brucei)
# Construct: made in house
# Sequence (Q388H8 1-446): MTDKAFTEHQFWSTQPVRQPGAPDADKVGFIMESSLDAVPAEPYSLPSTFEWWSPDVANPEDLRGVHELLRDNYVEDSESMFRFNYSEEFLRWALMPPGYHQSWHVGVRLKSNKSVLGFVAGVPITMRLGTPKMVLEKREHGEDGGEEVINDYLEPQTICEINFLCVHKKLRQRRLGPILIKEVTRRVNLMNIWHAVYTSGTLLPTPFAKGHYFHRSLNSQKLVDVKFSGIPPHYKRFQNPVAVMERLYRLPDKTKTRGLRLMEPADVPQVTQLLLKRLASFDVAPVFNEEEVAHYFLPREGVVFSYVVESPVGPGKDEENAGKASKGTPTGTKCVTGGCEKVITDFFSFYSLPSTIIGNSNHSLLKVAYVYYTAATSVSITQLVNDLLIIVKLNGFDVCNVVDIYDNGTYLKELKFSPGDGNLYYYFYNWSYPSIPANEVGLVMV
# protocol_summary: T. brucei NMT scintillation proximity dose-response assay
# Assay type: biochemical
# condition_label: Table 2; single determination; read-out: Tb IC50
readout_label: IC50 (µM)
Report the value in µM with no unit label.

compound	assay_value
Cn1c(CN2CCC(c3cc(F)cc(F)c3)CC2)nc2cc(Cl)ccc21	35.4

Attention now shifts to the item below.
Note to self: IC50 recorded for NC(CC(=O)N1CC(CO)C(c2ccc(Cl)cc2)C1)Cc1ccc(Cl)cc1 (centres unmarked) was 1.5

* * *

# measured_target: T brucei NMT (Trypanosoma brucei brucei, UniProt Q388H8)
# Construct: made in house
# protocol_summary: T. brucei NMT scintillation proximity dose-response assay
# Type: biochemical
readout_label: IC50 (µM)
Please state the figure in µM; there is no need to write the unit.

Input "Cc1cc2nc(N(C)C3CCN(C)CC3)nc(N(C)CCC#N)c2s1" . Output IC50: 56.2

* * *

# measured_target: P. falciparum NMT (Plasmodium falciparum)
# Construct: made in house
# Sequence (Q8ILW6 1-410): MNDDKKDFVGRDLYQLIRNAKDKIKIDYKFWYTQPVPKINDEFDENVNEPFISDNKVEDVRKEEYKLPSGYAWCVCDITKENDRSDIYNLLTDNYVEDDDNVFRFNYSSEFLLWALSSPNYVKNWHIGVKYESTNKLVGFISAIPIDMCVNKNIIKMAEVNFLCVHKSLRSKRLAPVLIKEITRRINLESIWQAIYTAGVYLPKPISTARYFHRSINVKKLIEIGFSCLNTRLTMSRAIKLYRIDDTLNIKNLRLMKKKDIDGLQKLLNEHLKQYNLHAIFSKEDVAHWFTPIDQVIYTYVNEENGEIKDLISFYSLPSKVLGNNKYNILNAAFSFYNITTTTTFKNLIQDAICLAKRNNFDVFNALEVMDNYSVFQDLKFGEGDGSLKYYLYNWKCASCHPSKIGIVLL
# protocol_summary: biochemical
# condition_label: Table 2; mean of 3 determinations; read-out: Pfal IC50
pIC50: −log10 of the molar value.
readout_label: pIC50

compound	measured_target	assay_value
NC(CC(=O)N1CC(CO)C(c2ccc(Cl)cc2)C1)Cc1ccc(Cl)cc1 (centres unmarked)	P. falciparum NMT (Plasmodium falciparum)	4.14
Cn1c(CN2CCC(c3cc(F)cc(F)c3)CC2)nc2cc(Cl)ccc21	P. falciparum NMT (Plasmodium falciparum)	6.04

A: CNCC(=O)N1CC[C@@H](NC(=O)c2ccccc2C(F)(F)F)C1
B: Cc1cnc(CNC(=O)C2CN(c3nc(NCCN(C)C)ncc3Cl)C2)cn1
For the pair A and B , which entry has the numerically smaller recorded pIC50? Write down the label of the entry you select.
A
